Parameter 'readout' = IC50; parameter 'system' = Urease (Canavalia ensiformis).
Reply numerically in µM, unit not repeated.

Known IC50 results, listed for orientation:
O=C(NNC(=S)NC12CC3CC(CC(C3)C1)C2)c1ccc(-c2nc3ccccc3s2)cc1 | 34.4
COc1cccc(NC(=S)NNC(=O)c2ccc(-c3nc4ccccc4s3)cc2)c1 | 28.1
O=C(NNC(=S)Nc1ccccc1Br)c1ccc(-c2nc3ccccc3s2)cc1 | 6.9
O=C(NNC(=S)Nc1ccc(C(F)(F)F)cc1)c1ccc(-c2nc3ccccc3s2)cc1 | 1.6
O=C(NNC(=S)Nc1cccc([N+](=O)[O-])c1)c1ccc(-c2nc3ccccc3s2)cc1 | 5.7

# return recorded IC50 for entry O=C(NNC(=S)Nc1ccc(Cl)cc1)c1ccc(-c2nc3ccccc3s2)cc1 5.5

# return recorded IC50 for entry COc1ccc(NC(=S)NNC(=O)c2ccc(-c3nc4ccccc4s3)cc2)cc1 13.6

###

# target.desc: Urease (Canavalia ensiformis, UniProt P07374)
# Sequence (P07374 whole entry): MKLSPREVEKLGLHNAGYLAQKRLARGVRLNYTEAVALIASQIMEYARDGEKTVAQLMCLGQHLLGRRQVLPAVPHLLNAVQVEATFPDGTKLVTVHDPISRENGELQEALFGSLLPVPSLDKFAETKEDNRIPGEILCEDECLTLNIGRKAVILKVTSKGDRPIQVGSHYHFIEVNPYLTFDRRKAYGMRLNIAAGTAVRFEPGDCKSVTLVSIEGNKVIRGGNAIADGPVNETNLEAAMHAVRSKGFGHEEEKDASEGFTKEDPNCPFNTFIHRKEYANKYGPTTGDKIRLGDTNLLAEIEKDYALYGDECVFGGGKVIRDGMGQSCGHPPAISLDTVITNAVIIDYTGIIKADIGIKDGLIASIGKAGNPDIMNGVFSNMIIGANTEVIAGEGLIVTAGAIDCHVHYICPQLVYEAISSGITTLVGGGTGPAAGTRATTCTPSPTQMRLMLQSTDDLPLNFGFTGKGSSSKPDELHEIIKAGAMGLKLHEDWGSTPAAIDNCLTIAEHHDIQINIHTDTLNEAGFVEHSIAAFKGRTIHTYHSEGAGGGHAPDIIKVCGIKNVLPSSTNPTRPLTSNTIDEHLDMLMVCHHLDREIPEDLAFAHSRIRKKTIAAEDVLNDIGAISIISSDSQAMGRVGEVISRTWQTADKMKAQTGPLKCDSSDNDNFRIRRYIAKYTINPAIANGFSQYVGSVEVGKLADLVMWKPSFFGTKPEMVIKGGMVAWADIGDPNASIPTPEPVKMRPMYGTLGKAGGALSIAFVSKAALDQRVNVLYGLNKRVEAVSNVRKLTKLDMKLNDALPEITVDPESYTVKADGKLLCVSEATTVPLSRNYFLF
property: pIC50
Lab note: report pIC50 as minus log10 of the concentration in molar units, number only.

Known pIC50 results, listed for orientation:
O=C(NNC(=S)Nc1cccc(Br)c1)c1ccc(-c2nc3ccccc3s2)cc1 | 4.94
O=C(NNC(=S)Nc1ccc([N+](=O)[O-])cc1)c1ccc(-c2nc3ccccc3s2)cc1 | 5.85
Cc1ccc(NC(=S)NNC(=O)c2ccc(-c3nc4ccccc4s3)cc2)cc1 | 4.98
O=C(NNC(=S)Nc1ccc(Br)cc1)c1ccc(-c2nc3ccccc3s2)cc1 | 4.86
Cc1cccc(NC(=S)NNC(=O)c2ccc(-c3nc4ccccc4s3)cc2)c1 | 4.73
O=C(NNC(=S)Nc1ccc(F)cc1)c1ccc(-c2nc3ccccc3s2)cc1 | 5.60
O=C(NNC(=S)Nc1cccc(F)c1)c1ccc(-c2nc3ccccc3s2)cc1 | 5.20

Then this compound:
State recorded pIC50 with Urease (Canavalia ensiformis, UniProt P07374), entry O=C(NNC(=S)Nc1ccccc1)c1ccc(-c2nc3ccccc3s2)cc1 , no comment. 4.72

###

Parameter 'readout' = IC50; parameter 'system' = Urease (Canavalia ensiformis, UniProt P07374).
Reply numerically in µM, unit not repeated.

Known IC50 results, listed for orientation:
O=C(NNC(=S)Nc1ccccc1Cl)c1ccc(-c2nc3ccccc3s2)cc1 | 4.3
O=C(NNC(=S)Nc1ccccc1F)c1ccc(-c2nc3ccccc3s2)cc1 | 3.4

# return recorded IC50 for entry Cc1ccccc1NC(=S)NNC(=O)c1ccc(-c2nc3ccccc3s2)cc1 7.4
